Target: ZIKV MTase (Zika virus, UniProt A0A024B7W1)
Construct: the ZIKV NS5 MTase (aa 4-278) domain were synthesized (Genscript); His6 (N); made in house; host or cells: Escherichia coli T7 Express Iq
Sequence (A0A024B7W1 2524-2798): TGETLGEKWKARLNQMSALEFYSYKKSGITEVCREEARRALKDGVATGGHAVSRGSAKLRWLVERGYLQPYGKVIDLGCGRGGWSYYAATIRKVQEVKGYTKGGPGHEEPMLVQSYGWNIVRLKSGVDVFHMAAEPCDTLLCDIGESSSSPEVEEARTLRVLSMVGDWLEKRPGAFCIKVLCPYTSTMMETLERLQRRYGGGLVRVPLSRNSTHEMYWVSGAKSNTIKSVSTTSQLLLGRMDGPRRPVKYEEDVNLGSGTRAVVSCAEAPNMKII
Test: Filter binding assay (FBA), ZIKV 2′-O-MTase activity
Assay type: biochemical
Conditions: 2′-O-MTase activity, compound at 50 μM; read-out: Percentage of inhibition of ZIKV MTase
Method: The synthesized arylpurines were evaluated for their inhibitory activity against the 2′-O-MTase activity of ZIKV and DENV3 MTases by quantification of [^3H]-methyl transfer from the [^3H]-SAM on short synthetic capped RNA (GpppAC4), by using a filter binding assay (FBA).[13,33] […] We assessed MTase inhibition by testing the synthesized compounds at a concentration of 50 μM. […]
Endpoint: inhibition at 50 µM (%)
Response body: numeric value in %, unit text excluded.

// known answers, use as guide
>>> value("CC(C)(C)CCN(CC[C@H](N)C(=O)O)c1cccc(-n2cnc3c(N)ncnc32)c1 [Compound 10]")
0
>>> value("Cc1ncnc2c1ccn2-c1cccc(N(CC[C@H](N)C(=O)O)CCC(C)(C)C)c1 [Compound 14]")
0
>>> value("COc1ccc(NC(=O)C[C@H](N)C(=O)O)cc1-n1cnc2c(N)ncnc21 [Compound 32]")
0

Problem: Which inhibition at 50 µM value belongs to Cc1ncnc2c1ccn2-c1cccc(NC(=O)C[C@H](N)C(=O)O)c1 [Compound 21] ?
Solution: 0

Problem: Entry Cc1ncnc2c1ccn2-c1cccc(N(CC[C@H](N)C(N)=O)CCC(C)(C)C)c1 [Compound 18] please
Solution: 10.8

Problem: Another compound: Cc1ncnc2c1ccn2-c1cccc(NC(=O)C[C@H](N)C(=O)OC(C)(C)C)c1 [Compound 20]
Solution: 0

* * *

Known CC50 of a selection of compounds
Assay: Cytotoxicity in non-infected VeroE6 cells
Type: cell-based, African green monkey
Details: African green monkey, non-infected, 50% cytotoxic concentration

The following compounds have reported results that may help.
>>> value("Cc1ncnc2c1ccn2-c1cccc(N(CC[C@H](N)C(=O)O)CCC(C)(C)C)c1 [Compound 14]")
"> 100 µM"
>>> value("COc1ccc(NC(=O)C[C@H](N)C(=O)O)cc1-n1cnc2c(N)ncnc21 [Compound 32]")
"> 100 µM"
>>> value("Cc1ncnc2c1ccn2-c1cccc(N(CC[C@H](NC(=O)OC(C)(C)C)C(N)=O)CCC(C)(C)C)c1 [Compound 17]")
"22.8 µM"

Problem: What value of measured CC50 is listed for CC(C)(C)CCN(CC[C@H](N)C(=O)O)c1cccc(-n2cnc3c(N)ncnc32)c1 [Compound 10] ?
Solution: > 100 µM

* * *

Some compounds, each annotated with its measured CC50.
Assay: Cytotoxicity in non-infected VeroE6 cells
Type: cell-based, African green monkey
Conditions: African green monkey, non-infected, 50% cytotoxic concentration

>>> value("CC(C)(C)OC(=O)[C@@H](N)CC(=O)Nc1cccc(-n2cnc3c(N)ncnc32)c1")
"> 100 µM"

Problem: Could you share which CC50 value was measured for COc1ccc(NC(=O)C[C@H](N)C(=O)OC(C)(C)C)cc1-n1cnc2c(N)ncnc21 ?
Solution: > 100 µM

Problem: Entry Cc1ncnc2c1ccn2-c1cccc(NC(=O)C[C@H](N)C(=O)OC(C)(C)C)c1 please
Solution: > 33 µM

Problem: What would you report for C[C@@]1(O)[C@H](O)[C@@H](CO)O[C@H]1n1ccc2c(N)ncnc21 [Compound 7DMA, 7-Deaza-2′-C-methyladenosine, reference compound] ?
Solution: > 200 µM
